Molecular target: HDAC6 (Homo sapiens (Human), UniProt Q9UBN7)
Sequence (Q9UBN7 whole entry): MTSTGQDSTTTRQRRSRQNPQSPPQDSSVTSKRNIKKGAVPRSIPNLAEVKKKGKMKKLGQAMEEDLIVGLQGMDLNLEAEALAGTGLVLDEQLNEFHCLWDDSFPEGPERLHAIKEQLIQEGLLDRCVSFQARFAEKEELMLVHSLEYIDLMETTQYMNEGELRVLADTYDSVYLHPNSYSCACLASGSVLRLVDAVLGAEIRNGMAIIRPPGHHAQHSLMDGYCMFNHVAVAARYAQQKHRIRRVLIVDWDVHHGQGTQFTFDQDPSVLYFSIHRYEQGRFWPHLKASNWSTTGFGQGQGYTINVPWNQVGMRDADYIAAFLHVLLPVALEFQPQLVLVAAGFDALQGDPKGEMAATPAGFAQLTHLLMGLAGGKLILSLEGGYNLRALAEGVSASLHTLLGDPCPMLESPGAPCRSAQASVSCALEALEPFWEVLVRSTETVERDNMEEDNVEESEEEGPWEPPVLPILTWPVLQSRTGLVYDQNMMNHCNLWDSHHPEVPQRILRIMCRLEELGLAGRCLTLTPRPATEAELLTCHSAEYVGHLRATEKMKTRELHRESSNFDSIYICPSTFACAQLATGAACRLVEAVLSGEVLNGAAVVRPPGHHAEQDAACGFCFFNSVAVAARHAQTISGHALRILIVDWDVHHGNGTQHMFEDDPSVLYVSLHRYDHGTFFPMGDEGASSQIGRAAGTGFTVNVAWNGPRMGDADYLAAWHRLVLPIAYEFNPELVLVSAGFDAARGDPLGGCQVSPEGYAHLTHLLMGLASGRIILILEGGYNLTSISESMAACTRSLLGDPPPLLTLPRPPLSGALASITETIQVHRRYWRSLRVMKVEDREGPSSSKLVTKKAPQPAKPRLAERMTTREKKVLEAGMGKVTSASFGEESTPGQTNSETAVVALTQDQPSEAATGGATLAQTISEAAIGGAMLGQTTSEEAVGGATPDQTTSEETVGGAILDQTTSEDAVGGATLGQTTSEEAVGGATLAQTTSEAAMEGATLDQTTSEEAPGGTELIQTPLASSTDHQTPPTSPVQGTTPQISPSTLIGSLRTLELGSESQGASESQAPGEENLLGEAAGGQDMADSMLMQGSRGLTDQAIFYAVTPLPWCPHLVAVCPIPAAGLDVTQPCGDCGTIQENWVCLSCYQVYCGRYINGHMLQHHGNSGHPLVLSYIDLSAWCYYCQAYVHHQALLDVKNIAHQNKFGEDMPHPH
Assay: HDAC6 in vitro enzymatic assay (fluorescence)
Assay type: biochemical
Conditions: Table 3; read-out: IC50 (nM) for inhibition of HDAC6
Procedure: Biological Tests Method for Measurement of Enzymatic Activity of HDACs Materials & Methods All Examples were tested in HDAC1,2,3,6 and 8 in vitro enzymatic assays. […] After enzymatic reaction, developer was added and after an additional incubation time, fluorescence intensity was measured at an excitation wavelength of 360 nm and an emission wavelength of 460 nm. […]
Structures can show the parent of a compound that is named as a salt.
Under this convention, satisfied denotes IC50 strictly below 50 nM and not satisfied denotes IC50 at or above 50 nM.

(Q) Quick check: does CCN(CC)c1ccc(-c2nc3cc(C(=O)NO)ccc3o2)cc1 [Example 33, trifluoroacetate] have IC50 under 50 nM?
(A) satisfied

(Q) Does the reported IC50 of O=C(NO)c1ccc2oc(N3CCc4ccccc4C3)nc2c1 [Example 46] stay below 50 nM?
(A) satisfied

(Q) Item Cn1c(N(Cc2ccccc2)c2ccccc2)nc2cc(C(=O)NO)ccc21 [Example 141] : IC50 beneath 50 nM, strictly?
(A) satisfied

(Q) Does the reported IC50 of O=C(NO)c1ccc2cc(-c3cccc(O)c3)oc2c1 [Example 284] stay below 50 nM?
(A) satisfied

(Q) Criterion: IC50 strictly below 50 nM. Is it met by Cn1c(N2CCc3ccccc3C2)nc2cc(C(=O)NO)ccc21 [Example 145] ?
(A) satisfied

(Q) Dear colleague, could you confirm whether IC50 of CC(C)CN(Cc1nc2cc(C(=O)NO)ccc2s1)CC(C)C [Example 274, trifluoroacetate] falls below 50 nM? Thanks.
(A) satisfied

(Q) Bench note: check whether O=C(NO)c1ccc2nc(NCc3ccccc3)[nH]c2c1 [Example 127] shows IC50 below 50 nM
(A) not satisfied

(Q) Confirm or reject: IC50 of COc1ccncc1-c1ccc(-c2nc3cc(C(=O)NO)ccc3o2)cc1 [Example 26] lies strictly below 50 nM
(A) satisfied

(Q) Please indicate whether the reported IC50 of N#Cc1ccc(-c2nc3cc(C(=O)NO)ccc3o2)cc1 [Example 36] is strictly below 50 nM.
(A) not satisfied

(Q) Identify whether the compound O=C(NO)c1ccc2cc(CO)oc2c1 [Example 119] records IC50 below 50 nM.
(A) not satisfied

(Q) Confirm or reject: IC50 of CC(C)c1ccc(-c2cc3cc(C(=O)NO)ccc3[nH]2)cc1 [Example 60] lies strictly below 50 nM
(A) not satisfied

(Q) For this compound, is IC50 lower than 50 nM? O=C(NO)c1ccc2oc(-c3ccccc3CO)cc2c1 [Example 281]
(A) not satisfied

(Q) Please indicate whether the reported IC50 of O=C(NO)c1ccc2nc(NCc3ccc(-c4ccccc4)cc3)[nH]c2c1 [Example 125] is strictly below 50 nM.
(A) satisfied

(Q) Report whether reported IC50 is lower than 50 nM (strictly) for Cc1ncccc1-c1nc2cc(C(=O)NO)ccc2o1 [Example 40, trifluoroacetate]
(A) not satisfied

(Q) # check: IC50 < 50 nM for COc1cc(-c2ccccc2F)ccc1-c1nc2cc(C(=O)NO)ccc2o1 [Example 196]
(A) satisfied

(Q) Say whether its IC50 is strictly beneath 50 nM. Entry: COc1cc(-c2cc3ccc(C(=O)NO)cc3s2)ccc1O [Example 150]
(A) not satisfied

(Q) State whether 50 nM exceeds IC50 recorded for O=C(NO)c1ccc2oc(-c3ccc(NC4CCCCCC4)nc3)nc2c1 [Example 158, trifluoroacetate] .
(A) satisfied

(Q) # TODO verify IC50 < 50 nM strictly for this compound: O=C(NO)c1ccc2oc(-c3ccccc3Cl)nc2c1 [Example 12]
(A) satisfied

Value source: patent US10654814B2
